system_name: native mouse MET on living cells (mouse, UniProt P16056 25-1379)
assay_explanation: cell-based or functional assay
metric_name: scatter score 0-4, MLP29, 1.000 nM (score)
Just the number please, in score, no unit attached.

[[record]]
binder = "71G3 chimeric llama-human IgG1 mAb (antibody, V domains shown, llama VH on human IgG1 CH1-CH2-CH3, llama VL on human lambda CL) VH: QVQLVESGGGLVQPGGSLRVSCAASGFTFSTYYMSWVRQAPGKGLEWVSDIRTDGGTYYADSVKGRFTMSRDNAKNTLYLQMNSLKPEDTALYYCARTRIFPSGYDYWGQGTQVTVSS VL: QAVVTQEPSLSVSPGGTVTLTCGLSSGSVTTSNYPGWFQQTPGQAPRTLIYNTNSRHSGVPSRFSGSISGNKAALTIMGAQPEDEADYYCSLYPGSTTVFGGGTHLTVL"
assay_value = 4

[[record]]
binder = "71G12 chimeric llama-human IgG1 mAb (antibody, V domains shown, llama VH on human IgG1 CH1-CH2-CH3, llama VL on human kappa CL) VH: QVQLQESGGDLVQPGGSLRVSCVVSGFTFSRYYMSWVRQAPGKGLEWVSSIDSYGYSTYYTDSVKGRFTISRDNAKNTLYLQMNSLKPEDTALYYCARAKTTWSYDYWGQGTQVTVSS VL: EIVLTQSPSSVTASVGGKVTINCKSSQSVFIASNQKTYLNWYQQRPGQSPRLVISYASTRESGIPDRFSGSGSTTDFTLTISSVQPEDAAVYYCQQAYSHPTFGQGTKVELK"
assay_value = 2

[[record]]
binder = "72F8 chimeric llama-human IgG1 mAb (antibody, V domains shown, llama VH on human IgG1 CH1-CH2-CH3, llama VL on human lambda CL) VH: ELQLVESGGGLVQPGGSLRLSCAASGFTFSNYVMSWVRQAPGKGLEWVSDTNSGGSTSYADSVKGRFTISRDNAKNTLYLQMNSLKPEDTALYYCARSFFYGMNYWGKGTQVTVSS VL: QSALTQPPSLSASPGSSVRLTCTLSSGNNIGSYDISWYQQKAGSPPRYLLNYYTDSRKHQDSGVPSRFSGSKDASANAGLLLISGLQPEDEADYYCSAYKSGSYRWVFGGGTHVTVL"
assay_value = 1

[[record]]
binder = "71C3 chimeric llama-human IgG1 mAb (antibody, V domains shown, llama VH on human IgG1 CH1-CH2-CH3, llama VL on human lambda CL) VH: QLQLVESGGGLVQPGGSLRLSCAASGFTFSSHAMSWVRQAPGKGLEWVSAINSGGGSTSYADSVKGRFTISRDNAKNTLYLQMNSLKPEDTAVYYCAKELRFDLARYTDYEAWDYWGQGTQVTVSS VL: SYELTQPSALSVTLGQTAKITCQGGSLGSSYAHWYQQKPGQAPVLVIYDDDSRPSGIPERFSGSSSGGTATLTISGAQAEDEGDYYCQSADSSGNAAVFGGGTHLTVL"
assay_value = 3


// switching to the query binder
(Q) Give its scatter score 0-4, MLP29, 1.000 nM value. Item: 71D4 chimeric llama-human IgG1 mAb (antibody, V domains shown, llama VH on human IgG1 CH1-CH2-CH3, llama VL on human lambda CL) VH: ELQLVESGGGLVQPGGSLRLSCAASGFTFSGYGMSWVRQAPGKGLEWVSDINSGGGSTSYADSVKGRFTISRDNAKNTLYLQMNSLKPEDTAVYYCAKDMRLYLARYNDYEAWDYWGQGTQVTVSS VL: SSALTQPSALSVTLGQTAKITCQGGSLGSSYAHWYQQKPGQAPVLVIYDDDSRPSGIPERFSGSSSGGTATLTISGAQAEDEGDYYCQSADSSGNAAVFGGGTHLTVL
(A) 1
